Origin of measurements: patent US20250195521A1

The following compounds are shown together with reported pIC50 values.
- target_entity: NRAS WT (Homo sapiens (Human), UniProt P01111+P62937)
- Sequence (P01111 whole entry): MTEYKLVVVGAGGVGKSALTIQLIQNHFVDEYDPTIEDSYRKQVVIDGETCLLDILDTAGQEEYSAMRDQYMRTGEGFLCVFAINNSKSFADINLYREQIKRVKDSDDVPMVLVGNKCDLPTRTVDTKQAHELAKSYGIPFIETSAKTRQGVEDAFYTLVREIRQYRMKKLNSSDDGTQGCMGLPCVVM
- Sequence (P62937 whole entry): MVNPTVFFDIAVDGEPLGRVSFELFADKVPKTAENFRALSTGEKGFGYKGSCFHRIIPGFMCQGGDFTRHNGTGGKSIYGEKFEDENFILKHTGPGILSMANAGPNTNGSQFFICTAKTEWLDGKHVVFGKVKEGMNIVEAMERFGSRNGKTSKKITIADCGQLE
- measurement_notes: Ras-Raf disruption/FRET/MOA assay (BRAF RBD, Cyclophilin A)
- Type: biochemical
pIC50: −log10 of the molar value.

smiles_str	quantity	result
CCn1c(-c2cccnc2[C@H](C)OC)c2c3cc(ccc31)-c1csc(n1)C[C@H](NC(=O)[C@H](C(C)C)N(C)C(=O)N1CC3(CC(NCCOC)C3)C1)C(=O)N1CCC[C@H](N1)C(=O)OCC(C)(C)C2	pIC50	6.00 to 7.00
CCn1c(-c2cccnc2[C@H](C)OC)c2c3cc(ccc31)-c1csc(n1)C[C@H](NC(=O)[C@H](C(C)C)N(C)C(=O)N1CC(C(C)(C)O)C1)C(=O)N1CCC[C@H](N1)C(=O)OCC(C)(C)C2	pIC50	6.00 to 7.00
CCn1c(-c2cccnc2[C@H](C)OC)c2c3cc(ccc31)-c1cc(O)cc(c1)C[C@H](NC(=O)[C@H](C(C)C)N(C)C(=O)[C@@H]1OCC[C@H]1c1ccccc1)C(=O)N1CCC[C@H](N1)C(=O)OCC(C)(C)C2	pIC50	7.00 to 8.00

Problem: I have this compound here, CCn1c(-c2cccnc2[C@H](C)OC)c2c3cc(ccc31)-c1cc(O)cc(c1)C[C@H](NC(=O)[C@H](C(C)C)N(C)C(=O)[C@H]1C[C@H]1O)C(=O)N1CCC[C@H](N1)C(=O)OCC(C)(C)C2 , and I need its recorded pIC50.
Result: 7.00 to 8.00

Problem: Consider the compound shown here: CCn1c(-c2cccnc2[C@H](C)OC)c2c3cc(ccc31)-c1csc(n1)C[C@H](NC(=O)[C@H](C(C)C)N(C)C(=O)N1CC3(CCOCC3)C1)C(=O)N1CCC[C@H](N1)C(=O)OCC(C)(C)C2 What is its recorded pIC50?
Result: 6.00 to 7.00

Problem: Bench note: what pIC50 did CCn1c(-c2cccnc2[C@H](C)OC)c2c3cc(ccc31)-c1csc(n1)C[C@H](NC(=O)[C@H](C(C)C)N(C)C(=O)N1C[C@H]3COC[C@H]3C1)C(=O)N1CCC[C@H](N1)C(=O)OCC(C)(C)C2 show?
Result: 7.00 to 8.00

Problem: Quick one: pIC50 for CCn1c(-c2cccnc2[C@H](C)OC)c2c3cc(ccc31)-c1csc(n1)C[C@H](NC(=O)[C@H](C(C)C)N(C)C(=O)[C@@H]1[C@@H]3CN(C)C[C@@H]31)C(=O)N1CCC[C@H](N1)C(=O)OCC(C)(C)C2 ?
Result: 6.00 to 7.00

Problem: Give its pIC50 value. Item: CCn1c(-c2cccnc2[C@H](C)OC)c2c3cc(ccc31)-c1csc(n1)C[C@H](NC(=O)[C@H](C(C)C)N(C)C(=O)N1CCOC3(COC3)C1)C(=O)N1CCC[C@H](N1)C(=O)OCC(C)(C)C2
Result: 7.00 to 8.00

Problem: What pIC50 value was documented for this compound, CCn1c(-c2cccnc2[C@H](C)OC)c2c3cc(ccc31)-c1csc(n1)C[C@H](NC(=O)[C@H](C(C)C)N(C)C(=O)N(C)C[C@H]1CCN1C)C(=O)N1CCC[C@H](N1)C(=O)OCC(C)(C)C2 ?
Result: 6.00 to 7.00

Problem: Using the record for CCn1c(-c2cccnc2[C@H](C)OC)c2c3cc(ccc31)-c1csc(n1)C[C@H](NC(=O)[C@H](C(C)C)N(C)C(=O)N1CC[C@@]13CCCN(C)C3)C(=O)N1CCC[C@H](N1)C(=O)OCC(C)(C)C2 , report its pIC50.
Result: 6.00 to 7.00

Problem: Looking for the measured pIC50 of CCn1c(-c2cccnc2[C@H](C)OC)c2c3cc(ccc31)-c1csc(n1)C[C@H](NC(=O)[C@H](C(C)C)N(C)C(=O)N1CC(Cc3cnn(C)c3)C1)C(=O)N1CCC[C@H](N1)C(=O)OCC(C)(C)C2 , can you help?
Result: 7.00 to 8.00
